# System: NU-DUL-1
# test.details: NHL cell line viability/apoptosis 384-well flow cytometry assay
# Assay type: cell-based
# protocol.conditions: Homo sapiens; NU-DUL-1 (DLBCL), 120 hours
pEC50: −log10 of the molar value.
measurement.label: pEC50

>>> numeric_readout("O=C1CC[C@H](N2C(=O)c3cccc(NCc4ccc(CN5CC(N6CCOCC6)C5)cc4F)c3C2=O)C(=O)N1")
7.20

---

# System: Pfeiffer
# test.details: NHL cell line viability/apoptosis 384-well flow cytometry assay
# Assay type: cell-based
# protocol.conditions: Homo sapiens; Pfeiffer (DLBCL), 120 hours; read-out: IC50 (% Viable Cells)
measurement.label: IC50 (nM)

>>> numeric_readout("O=C1CC[C@H](N2C(=O)c3cccc(NCc4ccc(CN5CC(N6CCOCC6)C5)cc4F)c3C2=O)C(=O)N1")
47.7
